Hello, the source for this data is ChEMBL document CHEMBL1125468, in case you need it.

- testName: Potency to inhibit African Sierra Leone(D-6) clone relative to artemisinin.
- Type: functional
measuredParameter: Relative potency
Could you keep your reply to the number by itself?

Past entries and their recorded results:
| smilesString | measuredParameter | numericResult |
| --- | --- | --- |
| C=CCOCC[C@@H]1CCC[C@@H]2CC[C@]3(C)OO[C@]21[C@@H](OC)O3 | Relative potency | 0.7 |
| CCN(CC)C(=O)OCC[C@@H]1CCC[C@@H]2CC[C@]3(C)OO[C@]21[C@@H](OC)O3 | Relative potency | 2.3 |

For the next question, use this molecule.
Task item: Dear colleague, I am looking for the recorded Relative potency of the following molecule: CO[C@H]1O[C@]2(C)CC[C@H]3CCC[C@@H](CCOC(=O)c4ccc(C(=O)O)cc4)[C@]31OO2
Reply: 0.1

---

Property: Relative potency; scope: individual molecules
- testName: Potency to inhibit Indochina(W-2) clone relative to artemisinin.
- Type: functional
Could you keep your reply to the number by itself?

| smilesString | Relative potency |
| --- | --- |
| CO[C@H]1O[C@]2(C)CC[C@H]3CCC[C@@H](CCOCc4c(C)noc4C)[C@]31OO2 | 2.8 |

Task item: Dear colleague, I am looking for the recorded Relative potency of the following molecule: CO[C@H]1O[C@]2(C)CC[C@H]3CCC[C@@H](CCOC(=O)N(C)C)[C@]31OO2
Reply: 1.8
